Recorded values, source ChEMBL document CHEMBL2311294.

- assayInfo: Terminal half life in Sprague-Dawley rat at 25 mg/kg, po
- Assay type: ADME, organism-based
- Design: dose 25 mg/kg, route oral
- testContext: in vivo, read-out: beta t1/2 (converted)
quantityKind: half-life (h)
Give bare numbers, in h.

Field half-life (entry Nc1ccccc1NC(=O)c1ccc(CNc2nccc(-c3cnc4ccccn34)n2)cc1 ) reads 4.58

* * *

- assayInfo: Tmax in Sprague-Dawley rat at 25 mg/kg, po
- Type: ADME, organism-based
- Parameters: dose 25 mg/kg, route oral
- testContext: in vivo
quantityKind: Tmax (min)
Answers are plain numbers, in min.

Field Tmax (entry Nc1ccccc1NC(=O)c1ccc(CNc2nccc(-c3cnc4ccccn34)n2)cc1 ) reads 4.98

* * *

- assayInfo: Terminal half life in Sprague-Dawley rat at 5 mg/kg, iv
- Assay type: ADME, organism-based
- Set-up: dose 5 mg/kg, route intravenous
- testContext: in vivo, read-out: beta t1/2 (converted)
quantityKind: half-life (h)
Numbers only, in h.

Field half-life (entry Nc1ccccc1NC(=O)c1ccc(CNc2nccc(-c3cnc4ccccn34)n2)cc1 ) reads 1.73

* * *

Read-out record for Histone deacetylase 1 (Homo sapiens, UniProt Q13547): IC50
Units required after the number.

// known answers, use as guide
[[record]]
chemicalstructure = "Nc1ccccc1NC(=O)c1ccc(CCNc2nccc(-c3cnc4ncccn34)n2)cc1"
observedvalue = "154 nM"

[[record]]
chemicalstructure = "Nc1ccccc1NC(=O)c1ccc(CNc2nccc(-c3cnc4ccccn34)n2)cc1"
observedvalue = "53 nM"

[[record]]
chemicalstructure = "Cc1nc2ccccn2c1-c1ccnc(NCc2ccc(C(=O)Nc3cc(F)ccc3N)cc2)n1"
observedvalue = "97 nM"

[[record]]
chemicalstructure = "Nc1ccccc1NC(=O)c1ccc(CNc2nccc(-c3cnc4ncccn34)n2)cc1"
observedvalue = "35 nM"

[[record]]
chemicalstructure = "Cc1nc2ccccn2c1-c1ccnc(NCCc2ccc(C(=O)Nc3ccccc3N)cc2)n1"
observedvalue = "131 nM"


For each of the items listed, what is its IC50?
1. Cc1nc2ncccn2c1-c1ccnc(NCc2ccc(C(=O)Nc3ccccc3N)cc2)n1
2. Cc1nc2ccccn2c1-c1ccnc(NCc2ccc(C(=O)Nc3ccc(F)cc3N)cc2)n1
3. Nc1ccccc1NC(=O)c1ccc(CNc2nccc(-c3cnc4cnccn34)n2)cc1

1. 127 nM
2. 135 nM
3. 110 nM
